tested-system: T1, CRBN, Q96SW2;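 further: pooled lentiviral library of zinc finger degron-EGFP fusions in mCherry-positive Jurkat cells, FACS-sorted after compound exposure, with degron abundance counted by next-generation sequencing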
T1 chain: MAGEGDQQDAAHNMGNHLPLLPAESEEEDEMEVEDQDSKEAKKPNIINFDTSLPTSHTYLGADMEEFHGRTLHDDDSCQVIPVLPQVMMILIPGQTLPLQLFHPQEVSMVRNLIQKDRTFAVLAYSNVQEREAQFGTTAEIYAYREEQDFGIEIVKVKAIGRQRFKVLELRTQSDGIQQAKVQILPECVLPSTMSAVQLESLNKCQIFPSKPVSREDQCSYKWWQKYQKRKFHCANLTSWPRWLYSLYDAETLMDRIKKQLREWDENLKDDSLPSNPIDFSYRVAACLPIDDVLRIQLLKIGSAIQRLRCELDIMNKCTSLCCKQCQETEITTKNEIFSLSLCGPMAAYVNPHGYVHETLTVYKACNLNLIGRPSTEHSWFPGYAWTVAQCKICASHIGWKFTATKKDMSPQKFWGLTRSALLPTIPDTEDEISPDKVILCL
experiment-description: log2 fold change of degron read counts, EGFP-low vs EGFP+ sorted cells (limma voom), compound-induced degradation; higher = more compound-induced degradation of the degron-EGFP fusion; degrons are variants of IKZF1/3 zinc finger 2; compound dose not given here
measurement-setup: Jurkat; 18 h; compound: compound 19 (5-tert-butyl-thalidomide)
Whole data set: some 8,300 sequences, median “log2 fold change of degron read counts, EGFP-low vs EGFP+ sorted cells (limma voom), compound-induced degradation” near -1.1, cut for the highest 2% near 3.2. What follows is part of a selection rich in the highest values, with near analogues and random picks from the rest.
Label rule, in plain words: log2 fold change of degron read counts of -2 and up is fulfilled, under -2 is not fulfilled.

Worked cases, answers included:
FNCEVCGAMFTQKGNLLRHIKL [46F_47N_49E_50V_52G_53A_54M_55F_67L_, Q9UKT9] | fulfilled
FVCEVCGAMFTQKGNLLRHIKL [46F_47V_49E_50V_52G_53A_54M_55F_67L_, Q9UKT9] | fulfilled
FRCPICGHTFTQKGNLLRHIKL [46F_47R_49P_50I_52G_53H_54T_55F_67L_, Q9UKT9] | not fulfilled
FECDVCGADFTQKGNLLRHIKL [46F_47E_49D_50V_52G_53A_54D_55F_67L_, Q9UKT9] | not fulfilled
FLCEVCGATFTQKGNLLRHIKL [46F_47L_49E_50V_52G_53A_54T_55F_67L_, Q9UKT9] | fulfilled

Then this sequence:
[Q] Entry FICEICGHAFTQKGNLLRHIKL [46F_47I_49E_50I_52G_53H_54A_55F_67L_, Q9UKT9] : is its log2 fold change of degron read counts no less than -2?
[A] not fulfilled
